- SYSTEM_TESTED: Serine/threonine-protein kinase B-raf (Homo sapiens, UniProt P15056, V600E)
- Sequence (P15056 2-766 V600E limits assumed): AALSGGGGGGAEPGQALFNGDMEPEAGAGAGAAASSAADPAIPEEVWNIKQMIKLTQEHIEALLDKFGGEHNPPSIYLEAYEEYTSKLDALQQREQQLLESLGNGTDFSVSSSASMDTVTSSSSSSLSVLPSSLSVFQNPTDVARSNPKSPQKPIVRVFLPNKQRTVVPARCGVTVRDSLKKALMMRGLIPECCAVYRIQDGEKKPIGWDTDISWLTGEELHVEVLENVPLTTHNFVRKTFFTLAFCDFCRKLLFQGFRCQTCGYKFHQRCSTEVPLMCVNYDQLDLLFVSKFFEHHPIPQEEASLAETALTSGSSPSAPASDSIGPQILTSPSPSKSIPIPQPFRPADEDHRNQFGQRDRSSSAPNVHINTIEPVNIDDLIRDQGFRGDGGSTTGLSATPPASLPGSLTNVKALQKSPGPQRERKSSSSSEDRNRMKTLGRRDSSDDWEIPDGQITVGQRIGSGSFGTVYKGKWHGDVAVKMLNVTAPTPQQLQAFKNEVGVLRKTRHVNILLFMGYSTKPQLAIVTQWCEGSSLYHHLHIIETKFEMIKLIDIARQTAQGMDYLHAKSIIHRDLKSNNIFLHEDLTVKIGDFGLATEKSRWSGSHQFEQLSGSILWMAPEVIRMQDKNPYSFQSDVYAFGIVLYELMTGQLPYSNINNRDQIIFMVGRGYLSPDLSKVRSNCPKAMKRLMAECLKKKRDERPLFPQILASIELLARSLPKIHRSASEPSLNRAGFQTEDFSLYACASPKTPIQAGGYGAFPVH
- PROTOCOL: Inhibition of His6-tagged full length BRAF V600E mutant (2 to 766 residues) (unknown origin) expressed in Baculovirus expression system by BRAMA method
hey, just use YES if measured IC50 is less than 10 nM, otherwise NO

CNS(=O)(=O)c1cccc(Nc2ncnc3[nH]cc(-c4ccc(OC)cc4)c23)c1 :: YES
CNS(=O)(=O)c1cccc(Nc2ncnc3[nH]c(C(=O)O)cc23)c1 :: NO
CNS(=O)(=O)c1cccc(Nc2ncnc3[nH]cc(-c4ccc(CN)cc4)c23)c1 :: YES
CNS(=O)(=O)c1cccc(Nc2ncnc3[nH]c(-c4cccc(C)c4)cc23)c1 :: YES
CNS(=O)(=O)c1cccc(Nc2ncnc3[nH]cc(CC(C)C)c23)c1 :: NO

Prompt line: # strict comparison: is reported IC50 < 10 nM? input = CNS(=O)(=O)c1cccc(Nc2ncnc3[nH]cc(Cl)c23)c1
Response line: NO

Prompt line: Criterion: IC50 strictly below 10 nM. Is it met by CNS(=O)(=O)c1cccc(Nc2ncnc3[nH]cc(-c4ccc(Cl)cc4)c23)c1 ?
Response line: YES

Prompt line: Does the reported IC50 of CNS(=O)(=O)c1ccc(N(C)C)c(Nc2ncnc3[nH]cc(C)c23)c1 stay below 10 nM?
Response line: YES

Prompt line: Determine whether this molecule shows IC50 lower than 10 nM (ties excluded): CNS(=O)(=O)c1ccc(N2CCOCC2)c(Nc2ncnc3[nH]c(-c4cccc(C(F)(F)F)c4)cc23)c1
Response line: YES

====

- SYSTEM_TESTED: Serine/threonine-protein kinase B-raf (Homo sapiens, UniProt P15056, V600E)
- PROTOCOL: Inhibition of His6-tagged full length BRAF V600E mutant (2 to 766 residues) (unknown origin) expressed in Baculovirus expression system by BRAMA method
Label scheme for IC50: label 0: < 6 nM; label 1: ≥ 6 nM and < 30 nM; label 2: ≥ 30 nM

CNS(=O)(=O)c1cccc(Nc2ncnc3[nH]ccc23)c1 :: label 2
CNS(=O)(=O)c1cccc(Nc2ncnc3[nH]cc(-c4ccncc4)c23)c1 :: label 2
CNS(=O)(=O)c1ccc(Cl)c(Nc2ncnc3[nH]ccc23)c1 :: label 2
CNS(=O)(=O)c1cccc(Nc2ncnc3[nH]c(-c4ccc(O)cc4)cc23)c1 :: label 0
CNS(=O)(=O)c1ccc(N2CCOCC2)c(Nc2ncnc3[nH]cc(Br)c23)c1 :: label 0
CNS(=O)(=O)c1ccc(N(C)C)c(Nc2ncnc3[nH]cc(Br)c23)c1 :: label 0
CNS(=O)(=O)c1cccc(Nc2ncnc3[nH]c(-c4ccc(C)cc4)cc23)c1 :: label 0
CNS(=O)(=O)c1ccc(N2CCOCC2)c(Nc2ncnc3[nH]ccc23)c1 :: label 1

# evaluate next
Prompt line: # bin label for CNS(=O)(=O)c1cccc(Nc2ncnc3[nH]cc(C(C)C)c23)c1
Response line: label 2

====

- Tested on: Rattus norvegicus
- PROTOCOL: Dose normalized AUC in po dosed Sprague-Dawley rat by LC/MS/MS analysis
- Format: ADME, organism-based
- CONDITION_CONTEXT: in vivo
OUTCOME_MEASURE: AUC/dose

CNS(=O)(=O)c1cccc(Nc2ncnc3[nH]cc(Br)c23)c1 :: 0.55 kg·h/L
CNS(=O)(=O)c1cccc(Nc2ncnc3[nH]cc(-c4ccc(OC)cc4)c23)c1 :: 0.06 kg·h/L
CNS(=O)(=O)c1cccc(Nc2ncnc3[nH]cnc23)c1 :: 0 kg·h/L
CNS(=O)(=O)c1cccc(Nc2ncnc3[nH]cc(Cl)c23)c1 :: 0.39 kg·h/L

Kindly consider the entry below.
Prompt line: Form: Entry = CNS(=O)(=O)c1cccc(Nc2ncnc3[nH]cc(C(C)C)c23)c1 | System = Rattus norvegicus | AUC/dose = ____
Response line: 0.06 kg·h/L
